Biological target: T1, CD3ε homodimer protein (human, UniProt P07766 23-126, limits assumed, sulfo-tag or biotin label in some ECL assays)
T1 construct: also called human CD3ε homodimer protein; CD3 (CD3ε)
T1 sequence (P07766 23-126 limits assumed): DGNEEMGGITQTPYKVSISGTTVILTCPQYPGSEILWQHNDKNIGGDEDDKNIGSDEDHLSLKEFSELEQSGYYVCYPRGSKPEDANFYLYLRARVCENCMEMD
Assay: SPR, CD3ε homodimer on chip;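 note: biacore SPR with antibody variants flowed as analyte over amine-coupled CD3ε homodimer on a CM chip, bound amount of each single-residue H chain variant over that of parent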
value kind: ratio of amounts bound vs CE115HA000

binder | ratio of amounts bound vs CE115HA000
CE115HA000 T57N (antibody, name in Kabat numbering, V domains shown) VH: QVQLVESGGGVVQPGRSLRLSCAASGFTFSNAWMHWVRQAPGKGLEWVAQIKAKSNNYANYYAESVKGRFTISRDDSKNSLYLQMNSLKTEDTAVYYCRYVHYGAYYGVDAWGQGTTVTVSS VL: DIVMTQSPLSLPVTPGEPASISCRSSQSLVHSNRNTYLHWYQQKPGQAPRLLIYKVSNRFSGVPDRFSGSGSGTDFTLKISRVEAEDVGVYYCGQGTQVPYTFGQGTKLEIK | 0.97

Next binder, ratio of amounts bound vs CE115HA000 to be filled in.
# input Would you mind telling me what ratio of amounts bound vs CE115HA000 value was observed for CE115HA000 A60E (antibody, name in Kabat numbering, V domains shown) VH: QVQLVESGGGVVQPGRSLRLSCAASGFTFSNAWMHWVRQAPGKGLEWVAQIKAKSNNYATYYEESVKGRFTISRDDSKNSLYLQMNSLKTEDTAVYYCRYVHYGAYYGVDAWGQGTTVTVSS VL: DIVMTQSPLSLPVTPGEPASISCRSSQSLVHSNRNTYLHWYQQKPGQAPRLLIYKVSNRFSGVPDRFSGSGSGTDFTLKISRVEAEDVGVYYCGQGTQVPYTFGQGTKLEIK ?
# output 0.94
